The measurements presented in this section are drawn from PubChem BioAssay AID1259421.

# method-summary: T. gondii ME49Luc in HeLa cells, luciferase assay, 72 h, no IFN-y (AID 1259421)
# condition-description: active compounds read low, concentration not given here
Hit rate of the full screen: of about 6,400 compounds, about 610 (9.5%) were called active. The sample as a whole holds a higher share of actives than the screen did.
endpoint: activity change, negative = inhibition (%)
Answer with a number only, understood to be in %.

Study these solved cases before continuing.
1) Nc1nccc2c1ncn2[C@@H]1O[C@H](CO)C(O)C1O (stereo not given in full)
-4.71
2) COc1cc([C@@H]2c3cc4c(cc3[C@@H](O[C@@H]3O[C@@H]5CO[C@@H](c6cccs6)O[C@H]5[C@H](O)[C@H]3O)[C@H]3COC(=O)[C@H]23)OCO4)cc(OC)c1O
-72.9
3) COc1cc([C@@H]2c3cc4c(cc3[C@H](O)[C@H]3COC(=O)[C@@H]23)OCO4)cc(OC)c1OC
-71
4) COc1ccc([C@@H]2Sc3ccccc3NC(=O)[C@@H]2O)cc1
11.7
5) Nc1ncnc2c1ncn2[C@@H]1O[C@H](CO)[C@@H](O)[C@@H]1O
-51.5

Incoming: For the compound COCC(=O)NC/C=C/c1ccc2ncnc(Nc3ccc(Oc4ccc(C)nc4)c(C)c3)c2c1 , report activity change, negative = inhibition.
Outgoing: -85.5

Incoming: Given the compound C=CC(=O)Nc1ccc2ncnc(Nc3cccc(Br)c3)c2c1 , write its reported activity change, negative = inhibition.
Outgoing: -18.1

Incoming: Read the entry COc1ccc(-c2cc(=O)c3c(O)c(OC)c(OC)c(OC)c3o2)cc1OC and write its reported activity change, negative = inhibition.
Outgoing: -10.2

Incoming: Item C[C@H]1CC2C([C@@H](O)C[C@@]3(C)C2CC[C@]3(O)C(=O)CO)[C@@]2(C)C=CC(=O)C=C12 (stereo not given in full) : provide activity change, negative = inhibition
Outgoing: 5.02

Incoming: Give the value of activity change, negative = inhibition reported for the following: CC12CCC3C(CCC4CC(O)CCC43C)C1CC=C2c1ccccc1 (stereo not given)
Outgoing: 6.05
